For each of the compounds below, state its IC50.
# assay-target: dopamine D-2 receptors (Rattus norvegicus, UniProt P61169)
# Construct: striatal tissue is dissected and weighed
# Sequence (P61169 whole entry): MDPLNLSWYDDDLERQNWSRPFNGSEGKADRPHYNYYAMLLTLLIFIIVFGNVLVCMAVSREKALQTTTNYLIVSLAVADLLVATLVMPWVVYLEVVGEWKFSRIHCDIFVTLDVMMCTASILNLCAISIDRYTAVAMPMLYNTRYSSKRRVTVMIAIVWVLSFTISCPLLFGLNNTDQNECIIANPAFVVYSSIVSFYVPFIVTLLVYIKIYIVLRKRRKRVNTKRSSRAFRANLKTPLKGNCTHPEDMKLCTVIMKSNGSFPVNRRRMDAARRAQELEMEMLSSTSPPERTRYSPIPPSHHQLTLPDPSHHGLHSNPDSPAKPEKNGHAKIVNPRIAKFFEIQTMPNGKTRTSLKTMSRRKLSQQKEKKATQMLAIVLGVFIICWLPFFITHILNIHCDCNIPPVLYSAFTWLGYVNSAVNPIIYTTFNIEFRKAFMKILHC
# assay-notes: Inhibition of 3H-spiperone binding to dopamine D-2 receptors in rat corpus striatum in vitro
# measurement-conditions: 3H-spiperone 0.5 nM, rat corpus striatum, 37° C., 10 min; read-out: Receptor Binding; IC50 DA D-2 3H-Spi
# output: number + unit

Record summary for CC(C)N1CCN(CCN2CCN([C@@H]3C[C@@H](c4ccc(F)cc4)c4cc(C(F)(F)F)ccc43)CC2)C1=O (relative stereo) : reported IC50 = 510 nM

// O=C1N(CCO)CCN1CCN1CCN([C@@H]2C[C@@H](c3ccc(F)cc3)c3cc(Cl)ccc32)CC1 (relative stereo) : IC50 value = 320 nM

compound O=C1NCCN1CCN1CCN([C@@H]2C[C@@H](c3ccc(F)cc3)c3ccccc32)CC1 [Irindalon, reference compound] , IC50 observed: 400 nM

For reference, reported IC50 for Cc1ccc2c(c1)[C@H](N1CCN(CCN3CCNC3=O)CC1)C[C@H]2c1ccc(F)cc1 (relative stereo) [Compound 40, reference compound] stands at 43 nM

Record Fc1ccc([C@@H]2C[C@@H](N3CCN(CCN4CCNC4=S)CC3)c3ccc(Cl)cc32)cc1 (relative stereo) , field IC50: 67 nM

For OCCN1CCN([C@@H]2C[C@@H](c3ccc(F)cc3)c3cc(C(F)(F)F)ccc32)CC1 (relative stereo) the compound record lists IC50 as 1300 nM

---

# assay-target: α1 adrenoceptors
# assay-notes: Inhibition of 3H-prazosin binding to α1 adrenoceptors in rat brain in vitro
# measurement-conditions: 3H-Prazosin 0.25 nM, rat brain, 25° C., 20 min; read-out: Receptor Binding; IC50 α1 3H-Praz
readout-name: IC50 (nM)
Write down the numeric answer in nM and omit the unit.

Form field IC50 for item CCN1CCN(CCN2CCN([C@@H]3C[C@@H](c4ccc(F)cc4)c4cc(Cl)ccc43)CC2)C1=O (relative stereo) on α1 adrenoceptors: 240

Recorded IC50 for Fc1ccc([C@@H]2C[C@@H](N3CCN(CCN4CCNC4=S)CC3)c3ccc(F)cc32)cc1 (relative stereo) on α1 adrenoceptors was 110

Value sought: IC50, system α1 adrenoceptors, item CC(C)N1CCN(CCN2CCN([C@@H]3C[C@@H](c4ccc(F)cc4)c4cc(C(F)(F)F)ccc43)CC2)C1=O (relative stereo) . Result: 350

Short answer on α1 adrenoceptors for O=C1NCCN1CCN1CCN([C@@H]2C[C@@H](c3ccc(F)cc3)c3ccc(C(F)(F)F)cc32)CC1 (relative stereo) [Compound 39, reference compound] , IC50: 8.3

Response field IC50 (α1 adrenoceptors) for item Fc1ccc([C@H]2C[C@H](N3CCNCC3)c3ccc(Cl)cc32)cc1 (single isomer, unassigned) [(-)-10] : 390

Form field IC50 for item Cc1cc([C@@H]2C[C@@H](N3CCN(CCN4CCNC4=O)CC3)c3ccc(Cl)cc32)cs1 (relative stereo) on α1 adrenoceptors: 240

Record for OCCN1CCN([C@H]2C[C@H](c3ccc(F)cc3)c3cc(F)ccc32)CC1 (single isomer, unassigned) [(+)-2] under target or system α1 adrenoceptors: IC50 reported as 72

Result for CSc1ccc2c(c1)[C@H](c1ccc(F)cc1)C[C@H]2N1CCN(CCN2CCNC2=O)CC1 (relative stereo) , tested on α1 adrenoceptors, IC50: 240

# IC50 measured on α1 adrenoceptors for item O=C1NCCCN1CCN1CCN([C@@H]2C[C@@H](c3ccc(F)cc3)c3cc(Cl)ccc32)CC1 (single isomer, unassigned) [(-)-34] = 62

Observed IC50, α1 adrenoceptors, OCCN1CCN([C@H]2C[C@H](c3ccc(F)cc3)c3cc(Cl)ccc32)CC1 (single isomer, unassigned) [(-)-3] : 210

Measured IC50 for this entry Cc1ccc2c(c1)[C@@H](c1ccc(F)cc1)C[C@@H]2N1CCN(CCO)CC1 (relative stereo) on α1 adrenoceptors: 270

Fill in: α1 adrenoceptors IC50 for O=C1CCCN1CCN1CCN([C@H]2C[C@H](c3ccc(F)cc3)c3cc(Cl)ccc32)CC1 (relative stereo) = 370

Kindly note: α1 adrenoceptors, Fc1ccc([C@@H]2C[C@@H](N3CCN(CCN4CCCNC4=S)CC3)c3ccc(F)cc32)cc1 (single isomer, unassigned) [(+)-30] , IC50 value reported: 43

---

The next entries give measured pIC50 for 5-HT2 receptors (Rattus norvegicus, UniProt P14842).
Keep it numeric: pIC50 is minus log10 of the concentration in mol/L.

Record Fc1ccc([C@@H]2C[C@@H](N3CCN(CCN4CCCNC4=S)CC3)c3ccc(Cl)cc32)cc1 (single isomer, unassigned) [(-)-32] . Reported pIC50: 9.12

Sure, the documented pIC50 for Fc1ccc([C@@H]2C[C@@H](N3CCN(CCN4CCCC4=S)CC3)c3ccc(Cl)cc32)cc1 (relative stereo) is 8.28

So, O=C1NCCN1CCCN1CCN([C@H]2C[C@H](c3ccc(F)cc3)c3cc(Cl)ccc32)CC1 (relative stereo) ? Its pIC50 was 8.00

O=C1NCCCN1CCN1CCN([C@@H]2C[C@@H](c3ccc(F)cc3)c3cc(Cl)ccc32)CC1 (single isomer, unassigned) [(-)-34] yielded pIC50 of 8.89

Item: Fc1ccc([C@@H]2C[C@@H](N3CCN(CCN4CCCNC4=S)CC3)c3ccc(F)cc32)cc1 (single isomer, unassigned) [(-)-30] | pIC50: 7.38

Data point: OCCN1CCN([C@H]2C[C@H](c3ccc(F)cc3)c3cc(F)ccc32)CC1 (single isomer, unassigned) [(+)-2] ; pIC50 = 7.92

---

Give measured pIC50 for each item. Keep answers brief.
Expect pIC50 as a plain number equal to -log10 of the molar concentration.

Reported 5-HT2 receptors (Rattus norvegicus) pIC50 for item O=C1NCCCN1CCN1CCN([C@@H]2C[C@@H](c3ccc(F)cc3)c3cc(F)ccc32)CC1 (single isomer, unassigned) [(-)-33] was 7.24

Here CN1CCN(CCN2CCN([C@@H]3C[C@@H](c4ccc(F)cc4)c4cc(Cl)ccc43)CC2)C1=O (relative stereo) was tested on 5-HT2 receptors (Rattus norvegicus), and its pIC50 came to 8.55

# OCCN1CCN([C@@H]2C[C@@H](c3ccc(F)cc3)c3ccc(C(F)(F)F)cc32)CC1 (racemic) [Tefludazine, reference compound] with 5-HT2 receptors (Rattus norvegicus): pIC50 is 8.34

---

# assay-target: α1 adrenoceptors
# assay-notes: Inhibition of 3H-prazosin binding to α1 adrenoceptors in rat brain in vitro
# measurement-conditions: 3H-Prazosin 0.25 nM, rat brain, 25° C., 20 min; read-out: Receptor Binding; IC50 α1 3H-Praz
Hi there, I'd appreciate the recorded IC50 for every entry that follows.
Express the result in µM but write the number alone.

Reported IC50 (α1 adrenoceptors) for entry OCCN1CCN([C@H]2C[C@H](c3ccc(F)cc3)c3cc(F)ccc32)CC1 (single isomer, unassigned) [(-)-2] is 1.1

α1 adrenoceptors data for O=C1NCCN1CCCN1CCN([C@H]2C[C@H](c3ccc(F)cc3)c3cc(Cl)ccc32)CC1 (relative stereo) [Compound 16] ; its IC50: 0.073

Here CN1CCN(CCN2CCN([C@@H]3C[C@@H](c4ccc(F)cc4)c4cc(Cl)ccc43)CC2)C1=O (relative stereo) [Compound 18] was tested on α1 adrenoceptors, and its IC50 came to 0.6

O=C1NCCN1CCN1CCN([C@@H]2C[C@@H](c3ccc(F)cc3)c3ccc(Cl)cc32)CC1 (relative stereo) [Compound 41, reference compound] tested on α1 adrenoceptors gave IC50: 0.0031

The value of IC50 recorded for O=C1NCCN1CCN1CCN([C@H]2C[C@H](c3ccc(F)cc3)c3cc(C(F)(F)F)ccc32)CC1 (single isomer, unassigned) [(+)-1] when tested on α1 adrenoceptors reads 0.33

Form: item Cc1ccc2c(c1)[C@@H](c1ccc(F)cc1)C[C@@H]2N1CCN(CCN2CCN(C(C)C)C2=O)CC1 (relative stereo) [Compound 12] ; test system α1 adrenoceptors; IC50: 0.12

Sample CC(C)N1CCN(CCN2CCN([C@@H]3C[C@@H](c4ccccc4)c4cc(Cl)ccc43)CC2)C1=O (relative stereo) [Compound 20] , system: α1 adrenoceptors. Its IC50 is 0.51

---

Exercise: state measured IC50 for each of the compounds provided.
# assay-target: 5-HT2 receptors (Rattus norvegicus)
# Sequence (P14842 whole entry): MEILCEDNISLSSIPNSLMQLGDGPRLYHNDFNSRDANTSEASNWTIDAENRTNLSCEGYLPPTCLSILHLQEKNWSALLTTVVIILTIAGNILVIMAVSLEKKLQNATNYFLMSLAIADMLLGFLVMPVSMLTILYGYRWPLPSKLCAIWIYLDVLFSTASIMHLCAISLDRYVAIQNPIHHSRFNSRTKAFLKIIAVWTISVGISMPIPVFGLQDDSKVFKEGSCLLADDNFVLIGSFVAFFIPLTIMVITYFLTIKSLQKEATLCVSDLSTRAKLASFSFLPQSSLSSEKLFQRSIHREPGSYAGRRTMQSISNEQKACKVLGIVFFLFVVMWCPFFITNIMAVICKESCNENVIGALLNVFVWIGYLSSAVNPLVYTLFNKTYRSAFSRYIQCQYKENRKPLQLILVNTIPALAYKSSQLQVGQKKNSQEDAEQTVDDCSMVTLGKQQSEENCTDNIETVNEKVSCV
Give the quantity in nM, number only.

The measured IC50 associated with Fc1ccc([C@@H]2C[C@@H](N3CCN(CCN4CCCNC4=S)CC3)c3ccc(F)cc32)cc1 (relative stereo) [Compound 30] reads 1.7

Summary for this compound, OCCN1CCN([C@H]2C[C@H](c3ccc(F)cc3)c3cc(Cl)ccc32)CC1 (single isomer, unassigned) [(-)-3] : IC50 is 11

So, Fc1ccc([C@@H]2C[C@@H](N3CCN(CCN4CCCNC4=S)CC3)c3ccc(Cl)cc32)cc1 (single isomer, unassigned) [(+)-32] ? Its IC50 was 21

Memo: Cc1ccc2c(c1)[C@@H](c1ccc(F)cc1)C[C@@H]2N1CCN(CCO)CC1 (relative stereo) [Compound 8] , reported IC50: 12

IC50 in this record for Fc1ccc([C@@H]2C[C@@H](N3CCN(CCN4CCNC4=S)CC3)c3ccc(F)cc32)cc1 (relative stereo) [Compound 29] : 1.5

Record summary for CC(C)N1CCN(CCN2CCN([C@@H]3C[C@@H](c4ccccc4F)c4cc(Cl)ccc43)CC2)C1=O (relative stereo) [Compound 21] : reported IC50 = 3.5

// IC50 value for OCCN1CCN([C@@H]2C[C@@H](c3ccc(F)cc3)c3cc(C(F)(F)F)ccc32)CC1 (relative stereo) [Compound 5] : 8.9

The reported IC50 of the compound O=C1CCCN1CCN1CCN([C@H]2C[C@H](c3ccc(F)cc3)c3cc(Cl)ccc32)CC1 (relative stereo) [Compound 15] was 10

The recorded IC50 for entry Cc1ccc([C@@H]2C[C@@H](N3CCN(CCN4CCN(C(C)C)C4=O)CC3)c3ccc(Cl)cc32)cc1 (relative stereo) [Compound 26] equals 11

Quick note, IC50 for Cc1ccc2c(c1)[C@@H](c1ccc(F)cc1)C[C@@H]2N1CCN(CCN2CCN(C(C)C)C2=O)CC1 (relative stereo) [Compound 12] landed at 3

Measured IC50, O=C1NCCCN1CCN1CCN([C@@H]2C[C@@H](c3ccc(F)cc3)c3cc(F)ccc32)CC1 (single isomer, unassigned) [(+)-33] : 1.1

// IC50 value for O=C1N(CCN2CCN([C@@H]3C[C@@H](c4ccc(F)cc4)c4cc(Cl)ccc43)CC2)CCN1c1ccccc1 (relative stereo) [Compound 17] : 44

Noted for O=C1N(CCO)CCN1CCN1CCN([C@@H]2C[C@@H](c3ccc(F)cc3)c3cc(Cl)ccc32)CC1 (relative stereo) [Compound 37] : its IC50 reads 6.1

Sure, the documented IC50 for O=C1NCCN1CCN1CCN([C@H]2C[C@H](c3ccc(F)cc3)c3cc(C(F)(F)F)ccc32)CC1 (relative stereo) [Compound 1] is 2.9

Value of measured IC50 for the entry O=C1OCCN1CCN1CCN([C@H]2C[C@H](c3ccc(F)cc3)c3cc(Cl)ccc32)CC1 (relative stereo) [Compound 14] : 23

Sample CC(C)N1CCN(CCN2CCN([C@@H]3C[C@@H](c4ccc(Cl)cc4)c4cc(Cl)ccc43)CC2)C1=O (relative stereo) [Compound 27] ; IC50 observed: 15

Lab book: IC50 of O=C1NCCN1CCN1CCN([C@H]2C[C@H](c3ccc(F)cc3)c3cc(C(F)(F)F)ccc32)CC1 (single isomer, unassigned) [(+)-1] noted as 2

Quick note, IC50 for Fc1ccc([C@H]2C[C@H](N3CCNCC3)c3ccc(Cl)cc32)cc1 (single isomer, unassigned) [(+)-10] landed at 3300

IC50 recorded for this compound, Fc1ccc([C@@H]2C[C@@H](N3CCN(CCN4CCCNC4=S)CC3)c3ccc(F)cc32)cc1 (single isomer, unassigned) [(+)-30] , is 0.95

IC50 reported for this compound CC(C)N1CCN(CCN2CCN([C@H]3C[C@H](c4ccc(F)cc4)c4cc(Cl)ccc43)CC2)C1=O (single isomer, unassigned) [(+)-11] : 75

Reported IC50 ( O=c1[nH]c2ccccc2n1CCN1CCN([C@@H]2C[C@@H](c3ccc(F)cc3)c3cc(Cl)ccc32)CC1 (relative stereo) [Compound 25] ) = 5.6

Note to self: IC50 recorded for CC(C)N1CCN(CCN2CCN([C@@H]3C[C@@H](c4ccc(F)cc4)c4cc(Br)ccc43)CC2)C1=O (relative stereo) [Compound 24] was 6.4

Fc1ccc([C@@H]2C[C@@H](N3CCN(CCN4CCNC4=S)CC3)c3ccc(Cl)cc32)cc1 (relative stereo) [Compound 31] has a reported IC50 of 1.5

Noted for CC(C)N1CCN(CCN2CCN([C@@H]3C[C@@H](c4cccc(F)c4)c4cc(Cl)ccc43)CC2)C1=O (relative stereo) [Compound 28] : its IC50 reads 26

Record summary for OCCN1CCN([C@H]2C[C@H](c3ccc(F)cc3)c3cc(F)ccc32)CC1 (single isomer, unassigned) [(-)-2] : reported IC50 = 500

Ref: patent US5643784A
